Cited source for all entries: paper PMC3461044

- EXPERIMENT_SUMMARY: Far UV circular dichroism of peptides in buffer (MRE, α-helix percentage)
- Type: physicochemical
- CONDITION_DESCRIPTION: Mean Residue Ellipticity at 208 nm, peptide in buffer, far UV CD
// returns false unless [q]208 nm Buffer (Greenfield 69) is strictly below -8000, in which case true

Consider the sequence KAGLQFPVGRIARFLK [B4FGE3(22–37), putative IAP; fragment of Histone H2A, Zea mays] . Is its [q]208 nm Buffer (Greenfield 69) strictly less than -8000? false

Repeat for the following sequence: GHRGALKDWVQAAGGAVAAFDFTTKG [Q8RW88(70–95), putative IAP; fragment of Alpha-amylase, Citrus reticulata] false

And the next one, KLKKLLAGQKDGLLGQIAAMSDLYTKK [P94692(929–955), putative IAP; fragment of Pyruvate-ferredoxin oxidoreductase, Desulfovibrio africanus] ? false

Follow-up item: GLWQIFSSKEEGKDNSQQKSKGDQAKEL [gb|ACU24018.1|(73–101), putative IAP; fragment of Unknown protein, Glycine max] false

// query: SLWKNLSRKISGAVKAQPDLHTLLPLPGS [Q9XEY7(120–148), putative IAP; fragment of Trehalase 1 GMTRE1, Glycine max] true

Okay, and FKALRALRLEDLRIPTSYIK [A3KLW0(117–136), putative IAP; fragment of Rubisco large chain, Anisophyllea pomifera] ? true

Would you kindly repeat that for GLWSTIKQKGKE [DS 01 (1–12), fragment 1–12 of DS 01, Phyllomedusa oreades, reference compound] ? true

Can you handle IAAAQRITSGAADIAINWAGGLHHAKK [B0CZJ3(104–130), putative IAP; fragment of Histone deacetylase complex, Laccaria bicolor] next? true
